// reported pIC50 for each item listed
- tgt: human A2A receptor (Homo sapiens, UniProt P29274)
- Construct: expressed in transfected cells; host or cells: HEK293
- Sequence (P29274 whole entry): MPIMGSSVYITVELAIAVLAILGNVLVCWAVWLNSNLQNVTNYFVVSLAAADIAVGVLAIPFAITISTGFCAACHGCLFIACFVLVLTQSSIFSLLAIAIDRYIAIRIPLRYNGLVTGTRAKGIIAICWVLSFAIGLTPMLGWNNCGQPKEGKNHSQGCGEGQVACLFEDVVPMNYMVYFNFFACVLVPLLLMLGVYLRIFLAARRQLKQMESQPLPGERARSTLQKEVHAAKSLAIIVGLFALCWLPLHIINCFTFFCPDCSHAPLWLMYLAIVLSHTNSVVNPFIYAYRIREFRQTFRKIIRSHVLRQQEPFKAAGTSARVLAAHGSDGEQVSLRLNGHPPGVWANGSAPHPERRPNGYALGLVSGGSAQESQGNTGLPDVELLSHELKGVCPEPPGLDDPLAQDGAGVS
- assay remarks: cAMP HTRF functional assay, recombinant HEK293 cells expressing human A2A receptor, agonist NECA
- Format: cell-based
pIC50: −log10 of the molar value.

structure notation | tgt | pIC50
COc1ccc(-c2ccccc2)c2ncc(NC(=O)C3(C(=O)N(C)C)CC3)nc12 | human A2A receptor (Homo sapiens, UniProt P29274) | > 7.00
COc1ccc(-c2cc(F)ccc2F)c2ncc(NC(=O)c3cnc(C)o3)nc12 | human A2A receptor (Homo sapiens, UniProt P29274) | > 7.00
COc1ccc(-c2cccc(F)c2F)c2ncc(NC(=O)C3CC3)nc12 | human A2A receptor (Homo sapiens, UniProt P29274) | > 8.00
COc1ccc(-c2cccc(F)c2F)c2ncc(NC(=O)c3cnc(C)o3)nc12 | human A2A receptor (Homo sapiens, UniProt P29274) | > 7.00
COc1ccc(-c2cccnc2)c2ncc(NC(=O)c3cnc(C)o3)nc12 | human A2A receptor (Homo sapiens, UniProt P29274) | > 7.00

The compound "CCOC(=O)c1nnc(NC(=O)Nc2cnc3c(C4=CCOCC4)ccc(OC)c3n2)s1" showed pIC50 equal to > 7.00

// pIC50 value for "COc1ccc(C2=CCOCC2)c2ncc(NC(=O)c3coc(CN)c3)nc12" : > 8.00

According to the records, this compound "COc1ccc(C2=CCOCC2)c2ncc(NC(=O)c3cnn(C)c3)nc12" displays pIC50 of > 8.00

Provenance of the data: patent US11192899B2
